Measurement Protocol: Phase-1 drug-drug interaction study in healthy volunteers (Compound (III) 800 mg, SMV 150 mg, Odalasvir 150 mg loading then 50 mg, once daily): plasma PK
Assay type: in vivo, human
Test Settings: both sexes, human, in vivo, Group 2, Day 23 (Compound (III) + SMV + ODV); read-out: AUC0-24
Quantity Name: AUC0-24
I'd appreciate it if you wrote the number followed by its unit.

Task: Data request, read-out AUC0-24, for CC(C)OC(=O)[C@H](C)N[P@](=O)(OC[C@@]1(F)O[C@@H](n2ccc(=O)[nH]c2=O)[C@](C)(O)[C@@H]1O)Oc1ccccc1
Result: 2910 ng·h/mL

###

Measurement Protocol: Phase-1 drug-drug interaction study in healthy volunteers (Compound (III) 800 mg, SMV 150 mg, Odalasvir 150 mg loading then 50 mg, once daily): plasma PK
Assay type: in vivo, human
Test Settings: both sexes, human, plasma, oral, Group 2, Day 23 (ODV + Compound (III) + SMV); read-out: Cmax
Quantity Name: Cmax (ng/mL)
Provide only the numeric value, understood in ng/mL.

Task: # get_value(readout='Cmax', item= COC(=O)N[C@H](C(=O)N1[C@H](c2nc3cc(-c4cc5ccc4CCc4ccc(c(-c6ccc7[nH]c([C@@H]8C[C@@H]9CCCC[C@@H]9N8C(=O)[C@@H](NC(=O)OC)C(C)C)nc7c6)c4)CC5)ccc3[nH]2)C[C@@H]2CCCC[C@@H]21)C(C)C [ODV, Odalasvir] )
Result: 780

###

Measurement Protocol: PK of single agents vs fixed dose combinations (FDC), single oral dose in healthy volunteers
Type: in vivo, human
Test Settings: human, plasma, oral, Arm 2: FDC02; read-out: tmax (median [range])
Listed molecules paired with reported Tmax
All answers are understood in h, so give the number only.

Solved cases (3 shown):
Molecule	Unit Of Measure	Tmax
COC(=O)N[C@H](C(=O)N1[C@H](c2nc3cc(-c4cc5ccc4CCc4ccc(c(-c6ccc7[nH]c([C@@H]8C[C@@H]9CCCC[C@@H]9N8C(=O)[C@@H](NC(=O)OC)C(C)C)nc7c6)c4)CC5)ccc3[nH]2)C[C@@H]2CCCC[C@@H]21)C(C)C	h	6
C[C@H](NP(=O)(O)OC[C@@]1(F)O[C@@H](n2ccc(=O)[nH]c2=O)[C@](C)(O)[C@@H]1O)C(=O)O	h	3
C[C@]1(O)[C@H](n2ccc(=O)[nH]c2=O)O[C@](F)(CO)[C@H]1O	h	4

Read the next record carefully.
Task: Field request: Tmax | item: COc1ccc2c(O[C@@H]3C[C@H]4C(=O)N[C@]5(C(=O)NS(=O)(=O)C6CC6)C[C@H]5/C=C\CCCCN(C)C(=O)[C@@H]4C3)cc(-c3nc(C(C)C)cs3)nc2c1C [SMV, Simeprevir, reference compound]
Result: 6

###

Measurement Protocol: PK of single agents vs fixed dose combinations (FDC), single oral dose in healthy volunteers
Type: in vivo, human
Test Settings: human, plasma, oral, Arm 1 (reference): single agents together; read-out: AUC∞ (mean ± SD)
Quantity Name: AUC(0-inf) (ng·h/mL)
// units = ng·h/mL; emit number, no label

Illustrative cases are given below, each with its answer.
Compound	Quantity Name	Recorded Value
COC(=O)N[C@H](C(=O)N1[C@H](c2nc3cc(-c4cc5ccc4CCc4ccc(c(-c6ccc7[nH]c([C@@H]8C[C@@H]9CCCC[C@@H]9N8C(=O)[C@@H](NC(=O)OC)C(C)C)nc7c6)c4)CC5)ccc3[nH]2)C[C@@H]2CCCC[C@@H]21)C(C)C [ODV, Odalasvir]	AUC(0-inf)	7080
C[C@H](NP(=O)(O)OC[C@@]1(F)O[C@@H](n2ccc(=O)[nH]c2=O)[C@](C)(O)[C@@H]1O)C(=O)O [Compound A-3]	AUC(0-inf)	823
COc1ccc2c(O[C@@H]3C[C@H]4C(=O)N[C@]5(C(=O)NS(=O)(=O)C6CC6)C[C@H]5/C=C\CCCCN(C)C(=O)[C@@H]4C3)cc(-c3nc(C(C)C)cs3)nc2c1C [SMV, Simeprevir, reference compound]	AUC(0-inf)	9920

Now for a further compound.
Task: # get_value(readout='AUC(0-inf)', item= C[C@]1(O)[C@H](n2ccc(=O)[nH]c2=O)O[C@](F)(CO)[C@H]1O [Compound A-1] )
Result: 4530

###

Measurement Protocol: PK of single agents vs fixed dose combinations (FDC), single oral dose in healthy volunteers
Assay type: in vivo, human
Test Settings: human, in vivo, Arm 2: FDC02; read-out: AUC∞ (mean ± SD)
Quantity Name: AUC(0-inf)

Task: Query (compound): CC(C)OC(=O)[C@H](C)N[P@](=O)(OC[C@@]1(F)O[C@@H](n2ccc(=O)[nH]c2=O)[C@](C)(O)[C@@H]1O)Oc1ccccc1 [Compound (III)] ; field requested: AUC(0-inf)
Result: 1300 ng·h/mL

###

Measurement Protocol: PK of single agents vs fixed dose combinations (FDC), single oral dose in healthy volunteers
Type: in vivo, human
Test Settings: Arm 2 (FDC02) vs reference (Arm 1)
Least Square Means Ratio, AUClast values for the compounds below.
Quick reminder: number only, in %, skip the unit.

Compound	Recorded Value
C[C@]1(O)[C@H](n2ccc(=O)[nH]c2=O)O[C@](F)(CO)[C@H]1O [Compound A-1]	118.54
COc1ccc2c(O[C@@H]3C[C@H]4C(=O)N[C@]5(C(=O)NS(=O)(=O)C6CC6)C[C@H]5/C=C\CCCCN(C)C(=O)[C@@H]4C3)cc(-c3nc(C(C)C)cs3)nc2c1C [SMV, Simeprevir, reference compound]	127.79
CC(C)OC(=O)[C@H](C)N[P@](=O)(OC[C@@]1(F)O[C@@H](n2ccc(=O)[nH]c2=O)[C@](C)(O)[C@@H]1O)Oc1ccccc1 [Compound (III)]	110.22

Task: What value of Least Square Means Ratio, AUClast has been reported for the following compound? COC(=O)N[C@H](C(=O)N1[C@H](c2nc3cc(-c4cc5ccc4CCc4ccc(c(-c6ccc7[nH]c([C@@H]8C[C@@H]9CCCC[C@@H]9N8C(=O)[C@@H](NC(=O)OC)C(C)C)nc7c6)c4)CC5)ccc3[nH]2)C[C@@H]2CCCC[C@@H]21)C(C)C [ODV, Odalasvir]
Result: 89.66

Task: What value of measured Least Square Means Ratio, AUClast is listed for C[C@H](NP(=O)(O)OC[C@@]1(F)O[C@@H](n2ccc(=O)[nH]c2=O)[C@](C)(O)[C@@H]1O)C(=O)O [Compound A-3] ?
Result: 103.24

###

The molecules listed here are annotated with their AUC(0-t).
Measurement Protocol: PK of single agents vs fixed dose combinations (FDC), single oral dose in healthy volunteers
Format: in vivo, human
Test Settings: human, plasma, oral, Arm 1 (reference): single agents together; read-out: AUClast (mean ± SD)
Your answer is read as ng·h/mL, so omit the unit and give the number.

The cases that follow already have their AUC(0-t) on record.
Molecule	AUC(0-t) (ng·h/mL)
COc1ccc2c(O[C@@H]3C[C@H]4C(=O)N[C@]5(C(=O)NS(=O)(=O)C6CC6)C[C@H]5/C=C\CCCCN(C)C(=O)[C@@H]4C3)cc(-c3nc(C(C)C)cs3)nc2c1C [SMV, Simeprevir, reference compound]	9420
COC(=O)N[C@H](C(=O)N1[C@H](c2nc3cc(-c4cc5ccc4CCc4ccc(c(-c6ccc7[nH]c([C@@H]8C[C@@H]9CCCC[C@@H]9N8C(=O)[C@@H](NC(=O)OC)C(C)C)nc7c6)c4)CC5)ccc3[nH]2)C[C@@H]2CCCC[C@@H]21)C(C)C [ODV, Odalasvir]	6320
C[C@H](NP(=O)(O)OC[C@@]1(F)O[C@@H](n2ccc(=O)[nH]c2=O)[C@](C)(O)[C@@H]1O)C(=O)O [Compound A-3]	800

Now examine the next entry.
Task: Request the reported AUC(0-t) associated with C[C@]1(O)[C@H](n2ccc(=O)[nH]c2=O)O[C@](F)(CO)[C@H]1O [Compound A-1]
Result: 3910

###

Measurement Protocol: PK of single agents vs fixed dose combinations (FDC), single oral dose in healthy volunteers
Assay type: in vivo, human
Test Settings: Arm 3: FDC04
Mark Y only when t1/2term (mean ± SD) stays strictly below 3 h. Values equal to the cut-off are N.

Compound	Cat
COc1ccc2c(O[C@@H]3C[C@H]4C(=O)N[C@]5(C(=O)NS(=O)(=O)C6CC6)C[C@H]5/C=C\CCCCN(C)C(=O)[C@@H]4C3)cc(-c3nc(C(C)C)cs3)nc2c1C [SMV, Simeprevir, reference compound]	N
C[C@H](NP(=O)(O)OC[C@@]1(F)O[C@@H](n2ccc(=O)[nH]c2=O)[C@](C)(O)[C@@H]1O)C(=O)O	Y
COC(=O)N[C@H](C(=O)N1[C@H](c2nc3cc(-c4cc5ccc4CCc4ccc(c(-c6ccc7[nH]c([C@@H]8C[C@@H]9CCCC[C@@H]9N8C(=O)[C@@H](NC(=O)OC)C(C)C)nc7c6)c4)CC5)ccc3[nH]2)C[C@@H]2CCCC[C@@H]21)C(C)C	N
CC(C)OC(=O)[C@H](C)N[P@](=O)(OC[C@@]1(F)O[C@@H](n2ccc(=O)[nH]c2=O)[C@](C)(O)[C@@H]1O)Oc1ccccc1	Y

Task: Criterion: t1/2term (mean ± SD) strictly below 3 h. Is it met by C[C@]1(O)[C@H](n2ccc(=O)[nH]c2=O)O[C@](F)(CO)[C@H]1O ?
Result: N
